Reference source for all entries: ChEMBL document CHEMBL1201862

# testSystem: Nuclear receptor subfamily 5 group A member 2 (Homo sapiens, UniProt O00482);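 further: HEK293T cells transfected with LRH-1 and a StAR promoter luciferase reporter; potency for inhibitors that lower LRH-1 driven reporter light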
# Sequence (O00482 whole entry): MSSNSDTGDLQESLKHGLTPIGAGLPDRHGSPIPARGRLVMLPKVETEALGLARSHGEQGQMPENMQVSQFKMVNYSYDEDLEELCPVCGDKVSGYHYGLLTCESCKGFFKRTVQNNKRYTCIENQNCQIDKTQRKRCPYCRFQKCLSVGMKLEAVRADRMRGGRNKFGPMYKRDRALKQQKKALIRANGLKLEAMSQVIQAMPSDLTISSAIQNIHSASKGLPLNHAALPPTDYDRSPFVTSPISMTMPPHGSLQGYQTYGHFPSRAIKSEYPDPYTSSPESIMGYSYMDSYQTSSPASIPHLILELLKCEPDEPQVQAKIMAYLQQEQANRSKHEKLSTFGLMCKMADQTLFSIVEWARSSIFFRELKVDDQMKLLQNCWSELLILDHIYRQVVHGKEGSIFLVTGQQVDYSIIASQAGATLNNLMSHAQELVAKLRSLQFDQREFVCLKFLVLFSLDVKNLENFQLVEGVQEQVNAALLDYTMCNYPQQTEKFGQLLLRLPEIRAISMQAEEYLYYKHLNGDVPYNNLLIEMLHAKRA
# Assay type: functional, cell-based
Activity calls are given as the source filed them.
# IC50 values compiled below

CC1SC(C)C(=O)N(CC(=O)Nc2ccc3c(c2)OCO3)C1=O (centres undefined) ... 35.9 µM (inactive)
Cc1ccc(NC(=O)COC(=O)C(NS(=O)(=O)c2ccc(Cl)cc2)C(C)O)c(Br)c1 (centres undefined) ... 35.9 µM (inactive)
Cc1cc(C)c2sc(NC(=O)c3ccc([N+](=O)[O-])o3)nc2c1 ... 35.8 µM (inactive)

Query string: Can you look up the measured IC50 of CCCc1cc(=O)oc2c(C)c(OCC(=O)NC3CC(C)(C)NC(C)(C)C3)ccc12 for me?
Result string: 35.9 µM (inactive)
